Quick reference for solubility limit among some substances
- test_protocol: Tube inversion concentration-temperature phase diagram
- Type: physicochemical
- measurement_setup: 50 mM Tris, 500 mM NaCl, pH 8.0
measurement_label: solubility limit

substance: Q: rationally designed pentameric coiled-coil derived from C, SEQ ID NO: 23 (MRGSHHHHHHGSIEGRVKEITFLKNTAPQMLRELQETNAALQDVRELLRQQSKL) [reference compound]
result: 3.5 mM

substance: Q2: coiled-coil protein redesigned from Q for reduced lateral assembly, SEQ ID NO: 11 (MRGSHHHHHHGSIEGRVKELLFLKKTAEQMLEELKETNKALHDVRHLLENQSKL) [Protein Q2]
result: 3.5 mM

====

Quick reference for melting temperature among some substances
- test_protocol: CD temperature scans (melting temperature)
- Assay type: physicochemical
- measurement_setup: CCM-bound, pH 4.0
measurement_label: melting temperature (°C)

substance: Q: rationally designed pentameric coiled-coil derived from C, SEQ ID NO: 23 (MRGSHHHHHHGSIEGRVKEITFLKNTAPQMLRELQETNAALQDVRELLRQQSKL) [reference compound]
measurement_label: melting temperature
unit_descriptor: °C
result: 76.4

substance: Q3: Q variant with V44I pore mutation, SEQ ID NO: 12 (MRGSHHHHHHGSIEGRVKEILFLKNTAYQMLLELKETNEALYDIRHLLQQQSKL) [Protein Q3]
measurement_label: melting temperature
unit_descriptor: °C
result: 61.9

substance: C2: C variant with redistributed electrostatic patches, SEQ ID NO: 22 (MRGSHHHHHHGSIEGRMQLAKHMLKELQKTNALQSVRTLLQQQVEEITQLKETVENSDSS) [Protein C2]
measurement_label: melting temperature
unit_descriptor: °C
result: 69.6

substance: Q2: coiled-coil protein redesigned from Q for reduced lateral assembly, SEQ ID NO: 11 (MRGSHHHHHHGSIEGRVKELLFLKKTAEQMLEELKETNKALHDVRHLLENQSKL) [Protein Q2]
measurement_label: melting temperature
unit_descriptor: °C
result: 59.9

====

- test_protocol: Tube inversion concentration-temperature phase diagram
- Assay type: physicochemical
- measurement_setup: at solubility limit, extent of gelation η 0.5
- Method: Tube Inversion Test. Immediately after concentration to 2 mM, the protein was incubated at 4° C. over the course of two weeks after aliquoting 150 μL into a 2 mL Eppendorf tube. The samples were visually assessed for gelation by inverting the tubes at 12-hour time intervals thereafter, with gelled samples not flowing upon inversion. Gelation. […] Purity of the protein was measured to be >99% by SDS-PAGE (FIG. 26) and concentration was measured by BCA assay. […]

substance: Q7: Q hydrogel variant from trimodal Monte Carlo search, SEQ ID NO: 16 (MRGSHHHHHHGSIEGRVKEMTFIKKTIEQQAEEMKEINKAIHDIRHALENISKK) [Protein Q7]
unit_descriptor: °C
UCST: 22.9
//
substance: Q5: Q hydrogel variant from Rosetta Monte Carlo search, SEQ ID NO: 14 (MRGSHHHHHHGSIEGRVKEITFIKKTIEQIAEEMKEINKAIHDIRHALENISKK) [Protein Q5]
unit_descriptor: °C
UCST: 33.6
//
substance: Q2: coiled-coil protein redesigned from Q for reduced lateral assembly, SEQ ID NO: 11 (MRGSHHHHHHGSIEGRVKELLFLKKTAEQMLEELKETNKALHDVRHLLENQSKL) [Protein Q2]
unit_descriptor: °C
UCST: 22.0
//
substance: Q: rationally designed pentameric coiled-coil derived from C, SEQ ID NO: 23 (MRGSHHHHHHGSIEGRVKEITFLKNTAPQMLRELQETNAALQDVRELLRQQSKL) [reference compound]
unit_descriptor: °C
UCST: 17.0
//
substance: Q4: Q hydrogel variant from Rosetta Monte Carlo search, SEQ ID NO: 13 (MRGSHHHHHHGSIEGRVKEITFIKKTIEQIAEEMKEINKAIHDIRHALENISKK) [Protein Q4]
unit_descriptor: °C
UCST: 35.9
//
substance: Q3: Q variant with V44I pore mutation, SEQ ID NO: 12 (MRGSHHHHHHGSIEGRVKEILFLKNTAYQMLLELKETNEALYDIRHLLQQQSKL) [Protein Q3]
unit_descriptor: °C
UCST: 13.0
//
substance: Q6: Q hydrogel variant from trimodal Monte Carlo search, SEQ ID NO: 15 (MRGSHHHHHHGSIEGRVKEITFIKKQIEQIAEEMKEINKAIHDIRHALENISKK) [Protein Q6]
unit_descriptor: °C
UCST: 17.5
